- Test system: A549
- Procedure text: A549 assay: screening of cancer cell growth inhibiting compound
- Type: cell-based
- Test context: Homo sapiens, 72 h; A549 cells, three days, WST-8; read-out: A549 IC50
Quantity kind: IC50

Here is how some compounds turned out for IC50.
| Compound | IC50 |
| --- | --- |
| C/C=C/c1cn2c(-c3ccc(C(=O)NC4CC4)cc3)cnc2c(NCC2CCOCC2)n1 [Example 1-243] | 500 to 1000 nM |
| O=C(NC1CC1)c1ccc(-c2cnc3c(NCC(F)(F)F)cc(NC4CCCCC4)nn23)cc1 [Example 2-145] | 50 to 500 nM |

Exercise: IC50 lookup needed for Nc1cccc(Oc2cc(NCC3CCOCC3)c3ncc(-c4ccc(C(=O)NC5CC5)cc4)n3n2)c1 [Example 2-91] , thanks.
Key: ≤ 50 nM

Exercise: Let us now turn to N#Cc1ccc(-c2cn3c(-c4ccc(C(=O)NC5CC5)cc4)cnc3c(NCC3CCOCC3)n2)c(N)c1 [Example 1-245]
Key: 50 to 500 nM

Exercise: Let us now turn to O=C(NC1CC1)c1ccc(-c2cnc3c(NCC4CCCCC4)cc(NC4CCCCC4)nn23)cc1 [Example 2-125]
Key: 50 to 500 nM

Exercise: Let us now turn to O=C(NC1CC1)c1ccc(-c2cnc3c(NCC4CCOCC4)cc(N4CCCC4)nn23)cc1 [Example 2-53]
Key: 1000 to 10000 nM

Exercise: Let us now turn to CC(C)CNc1nc(-c2cccc(C(=O)NCCCN(C)C)c2)cn2c(-c3ccc(C(=O)NC4CC4)cc3)cnc12 [Example 1-122]
Key: 1000 to 10000 nM

Exercise: Let us now turn to O=C(NC1CC1)c1ccc(-c2cnc3c(NCC4CCOCC4)cc(NC4CCCC(F)(F)C4)nn23)cc1 (stereo not shown) [Example 2-80]
Key: ≤ 50 nM

Exercise: Let us now turn to O=C(NC1CC1)c1ccc(-c2cnc3c(NCC4CCOCC4)cc(NC45CC6CC(CC(C6)C4)C5)nn23)cc1 [Example 2-64]
Key: ≤ 50 nM

Exercise: Let us now turn to CCCNc1cc(NC2CCCCC2)nn2c(-c3ccc(C(=O)NC4CC4)cc3)cnc12 [Example 2-141]
Key: 50 to 500 nM

----------
- Assay system: TTK (Homo sapiens, UniProt P33981)
- Sequence (P33981 whole entry): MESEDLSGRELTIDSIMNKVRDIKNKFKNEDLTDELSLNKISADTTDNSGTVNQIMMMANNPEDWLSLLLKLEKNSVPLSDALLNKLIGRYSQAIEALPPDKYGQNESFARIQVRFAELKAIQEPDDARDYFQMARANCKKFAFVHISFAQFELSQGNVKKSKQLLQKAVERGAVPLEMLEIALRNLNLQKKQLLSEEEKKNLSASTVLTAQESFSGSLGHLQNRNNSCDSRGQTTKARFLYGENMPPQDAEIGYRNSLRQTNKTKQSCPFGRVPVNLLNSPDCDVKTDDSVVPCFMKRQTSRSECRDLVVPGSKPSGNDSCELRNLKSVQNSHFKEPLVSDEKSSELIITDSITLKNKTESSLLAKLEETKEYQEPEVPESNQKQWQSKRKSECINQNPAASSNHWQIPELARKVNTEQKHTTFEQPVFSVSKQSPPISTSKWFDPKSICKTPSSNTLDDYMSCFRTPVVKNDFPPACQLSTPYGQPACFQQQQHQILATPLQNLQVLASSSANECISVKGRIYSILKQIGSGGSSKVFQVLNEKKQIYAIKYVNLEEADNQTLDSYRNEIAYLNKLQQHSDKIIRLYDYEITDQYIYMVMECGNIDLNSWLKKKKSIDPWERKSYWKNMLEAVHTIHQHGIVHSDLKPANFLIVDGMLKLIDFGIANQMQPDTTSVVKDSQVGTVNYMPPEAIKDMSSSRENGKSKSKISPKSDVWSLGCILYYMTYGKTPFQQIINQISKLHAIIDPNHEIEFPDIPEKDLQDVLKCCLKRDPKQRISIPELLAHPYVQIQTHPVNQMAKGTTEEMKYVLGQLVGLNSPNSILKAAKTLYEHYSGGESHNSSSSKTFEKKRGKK
- Procedure text: TTK assay: screening of TTK kinase activity suppressing action using p38 MAPK peptide
- Type: biochemical
- Test context: read-out: TTK IC50
- Procedure: Screening of a compound having a TTK kinase activity suppressing action using p38 MAPK peptide […] From the resultant mixture, an aliquot of 1.7 μL was taken out and mixed with the reaction terminating solution (60 μl) in the wells of a 384-well microtiter plate (manufactured by Corning Incorporated) made of polypropylene. […] Based on the fluorescence value in the absence of a test substance, the suppression activity of a test substance was measured.
1 if IC50 is below 7 nM. 0 if not; exact matches included in 0.

Use the examples below as a reference point.
| Molecule | Class |
| --- | --- |
| O=C(NC1CC1)c1ccc(-c2cnc3c(NCC4CCOCC4)cc(NC4CCCC4)nn23)cc1Cl [Example 2-230] | 1 |
| COc1cc(-c2cnc3c(NCC4CCOCC4)cc(NC4CCCC4)nn23)ccc1C(=O)NC1CC1 [Example 2-233] | 1 |
| CC(Oc1cc(NCC2CCOCC2)c2ncc(-c3ccc(C(=O)NC4CC4)cc3)n2n1)c1ccccc1 (stereo not drawn) [Example 2-174] | 0 |
| O=C(NC1CC1)c1ccc(-c2cnc3c(NCC4CCOCC4)cc(NC4CCCC4)nn23)c(F)c1 [Example 2-227] | 1 |
| O=C(NC1CC1)c1ccc(-c2cnc3c(NCC4CCOCC4)cc(C=C4CCCC4)nn23)cc1 [Example 2-209] | 0 |

Exercise: Strictly below 7 nM in IC50? O=C(NC1CC1)c1ccc(-c2cnc3c(NCC4CCOCC4)cc(NC4CCCC4)nn23)c(Cl)c1 [Example 2-231]
Key: 1

Exercise: Let us now turn to Nc1cc(C(=O)NC2CC2)ccc1-c1cnc2c(NCC3CCOCC3)cc(NC3CCCC3)nn12 [Example 2-225]
Key: 0

----------
- Test system: A549
- Procedure text: A549 assay: screening of cancer cell growth inhibiting compound
- Format: cell-based
- Test context: Homo sapiens, 72 h; A549 cells, three days, WST-8; read-out: A549 IC50
Readings of IC50 for the listed compounds

Here is how some compounds turned out for IC50.
| Compound | IC50 |
| --- | --- |
| CC(C)CNc1nc(-c2cccc(NCCCN)c2)cn2c(-c3ccc(C(=O)NC4CC4)cc3)cnc12 | 1000 to 10000 nM |
| CCC(C)Nc1cc(NCC2CCOCC2)c2ncc(-c3ccc(C(=O)NC4CC4)cc3)n2n1 (stereo not shown) | 50 to 500 nM |
| CC(C)CNc1nc(-c2cccc(C(=O)NCCN3CCOCC3)c2)cn2c(-c3ccc(C(=O)NC4CC4)cc3)cnc12 | 500 to 1000 nM |

Exercise: IC50 lookup needed for N#Cc1ccc(-c2cn3c(-c4ccc(C(=O)NC5CC5)cc4)cnc3c(NCc3nccs3)n2)cc1 , thanks.
Key: 50 to 500 nM

----------
- Test system: A549
- Procedure text: A549 assay: screening of cancer cell growth inhibiting compound
- Type: cell-based
- Test context: Homo sapiens, 72 h; A549 cells, three days, WST-8; read-out: A549 IC50
Quantity kind: IC50

Here is how some molecules turned out for IC50.
| Molecule | Assay system | Value |
| --- | --- | --- |
| CC(C)CNc1nc(-c2ccc(NC(=O)N3CCOCC3)cc2)cn2c(-c3ccc(C(=O)NC4CC4)cc3)cnc12 [Example 1-161] | A549 | 1 to 10 µM |
| O=C(NC1CC1)c1ccc(-c2cnc3c(NCC4CCOCC4)cc(Oc4ccccc4Cl)nn23)cc1 [Example 2-90] | A549 | 0.05 to 0.5 µM |
| COCCCCNc1cc(NC2CCCCC2)nn2c(-c3ccc(C(=O)NC4CC4)cc3)cnc12 [Example 2-138] | A549 | 0.05 to 0.5 µM |

Note: attention shifts to another entry.
Exercise: IC50 lookup needed for CC(C)CNc1nc(-c2cccc(NC(=O)N3CCOCC3)c2)cn2c(-c3ccc(C(=O)NC4CC4)cc3)cnc12 [Example 1-155] , thanks.
Key: 1 to 10 µM

----------
- Test system: A549
- Procedure text: A549 assay: screening of cancer cell growth inhibiting compound
- Type: cell-based
- Test context: Homo sapiens, 72 h; A549 cells, three days, WST-8; read-out: A549 IC50
Readings of IC50 for the listed compounds

| Compound | Assay system | IC50 |
| --- | --- | --- |
| Cn1ccc(CNc2cc(NC3CCCCC3)nn3c(-c4ccc(C(=O)NC5CC5)cc4)cnc23)n1 [Example 2-159] | A549 | 50 to 500 nM |
| CC(C)CNc1nc(-c2ccc(NC(=O)N3CCCC3)cc2)cn2c(-c3ccc(C(=O)NC4CC4)cc3)cnc12 [Example 1-121] | A549 | 500 to 1000 nM |
| Cc1ccc(Oc2cc(NCC3CCOCC3)c3ncc(-c4ccc(C(=O)NC5CC5)cc4)n3n2)cc1 [Example 2-103] | A549 | 50 to 500 nM |
| CC(C)CNc1nc(-c2ccc(NC(=O)NCc3ccco3)cc2)cn2c(-c3ccc(C(=O)NC4CC4)cc3)cnc12 [Example 1-118] | A549 | 500 to 1000 nM |
| O=C(NC1CC1)c1ccc(-c2cnc3c(NCCCCO)cc(NC4CCCCC4)nn23)cc1 [Example 2-130] | A549 | 50 to 500 nM |
| CC(C)CNc1nc(-c2ccc(C(=O)c3ccccc3)cc2)cn2c(-c3ccc(C(=O)NC4CC4)cc3)cnc12 [Example 1-125] | A549 | 1000 to 10000 nM |
| CC(C)CNc1nc(-c2cccc(NCC3CCN(C)CC3)c2)cn2c(-c3ccc(C(=O)NC4CC4)cc3)cnc12 [Example 1-168] | A549 | 500 to 1000 nM |
| O=C(NC1CC1)c1ccc(-c2cnc3c(NCC4CCOCC4)cc(N4CCCC4CO)nn23)cc1 (stereo not drawn) [Example 2-62] | A549 | 50 to 500 nM |

Note: attention shifts to another entry.
Exercise: Test system A549; read-out IC50; what value for CC(C)(O)CNc1nc(-c2ccc(C#N)cc2)cn2c(-c3ccc(C(=O)NC4CC4)cc3)cnc12 [Example 1-235] ?
Key: 50 to 500 nM

----------
- Assay system: UniProtKB P33981
- Procedure text: TTK assay: screening of TTK kinase activity suppressing action using p38 MAPK peptide
- Type: biochemical
- Test context: p38 MAPK peptide substrate; read-out: TTK IC50
Quantity kind: IC50 (nM)
The reply should contain only the number, in nM.

Here is how some compounds turned out for IC50.
| Compound | Value |
| --- | --- |
| O=C(NC1CC1)c1ccc(-c2cnc3c(NCC4CCOCC4)cc(Oc4cccc(O)c4)nn23)cc1 | 2.9 |
| Cn1cncc1CNc1cc(NC2CCCCC2)nn2c(-c3ccc(C(=O)NC4CC4)cc3)cnc12 | 3.9 |
| O=C(NC1CC1)c1ccc(-c2cnc3c(NCCSCCO)cc(NC4CCCCC4)nn23)cc1 | 7.3 |
| Cc1cc(CNc2cc(NC3CCCCC3)nn3c(-c4ccc(C(=O)NC5CC5)cc4)cnc23)no1 | 3.2 |
| Nc1ccccc1Oc1cc(NCC2CCOCC2)c2ncc(-c3ccc(C(=O)NC4CC4)cc3)n2n1 | 3.3 |
| CC(C)C(Nc1cc(NCC2CCOCC2)c2ncc(-c3ccc(C(=O)NC4CC4)cc3)n2n1)C(F)(F)F (stereo not shown) | 3.5 |

Note: attention shifts to another entry.
Exercise: IC50 lookup needed for O=C(NC1CC1)c1ccc(-c2cnc3c(NCC45CCN(CC4)CC5)cc(NC4CCCCC4)nn23)cc1 , thanks.
Key: 7.5
